- EXPERIMENT NOTES: probe aLAP1 signal on lysate-treated microarray – cell lysate, small-molecule microarray, COS7 lysate, primary screen (AID 1124);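 further: lysate comes from COS7 cells expressing LAP1 and is applied at 0.3 µg/mL; score merges spot fluorescence near 667 nm with signal-to-noise over triplicate slides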
- PARTICULARS: probe aLAP1, fluorescence, higher = more signal
Listing of recorded composite z-score by entry.

Worked cases, composite z-score given:
{"columns": ["COMPOUND", "composite z-score"],
 "data": [
  ["Cc1ccc(S[C@]2(C(=O)NCCN3CCOCC3)CC(=O)N(C3CCCCC3)[C@@H]2c2ccc(CO)cc2)cc1", 0.437],
  ["C[N+](C)(C)CCCCNC(=O)[C@H]1C[C@H]2C(=O)N3CCC[C@H]3C(=O)N2[C@H]1c1ccc(O)cc1", 0.625],
  ["CC1CC/C=C\\[C@H]2OC34C=CCN(CCN5CCOCC5)C(=O)[C@H]3N(CCCCCO)C(=O)[C@@H]4C2C(=O)O1 (some centres not stated)", -0.653],
  ["Cc1ccccc1/C=C/C=O", -0.298],
  ["[N-]=[N+]=NCc1ccccc1C[C@@]1(C(=O)NCc2ccccc2)N=C(c2ccc(OCCCO)cc2)O[C@@H]1c1ccccc1CN=[N+]=[N-]", 0.745]
]}

Challenge: Requested field: composite z-score. Item: `C=CCNC(=O)[C@H]1[C@@H]2C(=O)O[C@@H](c3ccccc3)[C@@H](c3ccccc3)N2[C@@H](c2ccc(OCCO)cc2)[C@]12C(=O)N(C(=O)OCCOC)c1ccc(C#CC3(O)CCCCCC3)cc12`
Response given: 1.5

Challenge: Requested field: composite z-score. Item: O=C1C2C=CC(C(O)c3cccc4ccccc34)N(n3cnnc3)C2C(=O)N1Cc1ccccc1 (configuration not stated)
Response given: 0.544

* * *

- EXPERIMENT NOTES: probe aDKK1 binding to arrayed compounds – biochemical, biotinylated probe, 635/667 nm fluorescence, primary screen (AID 1099);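 further: score merges 667nm spot fluorescence with signal to noise across triplicate slides; reference of the scale not given here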
- PARTICULARS: small-molecule microarray, higher = more signal
Listing of recorded composite z-score by entry.
Please give only the number in your answer, with no unit.

Challenge: Requested field: composite z-score. Item: `[N-]=[N+]=Nc1ccccc1[C@@H]1OC(c2ccc(OCCCO)cc2)=N[C@]1(CCS(=O)(=O)c1ccccc1)C(=O)O`
Response given: 0.541

Challenge: Requested field: composite z-score. Item: `CCOC(=O)C[C@H]1[C@H](OC(=O)c2ccccc2-c2ccccc2)[C@@H](NC(=O)c2ccc(-c3ccccc3)cc2)c2cc(OCCCO)ccc2N1C(=O)c1ccccc1`
Response given: 0.319

Challenge: Requested field: composite z-score. Item: `CCCC[C@@H]1C[C@H]1[C@@H](NC(=O)c1ccccc1)c1ccc(-c2ccccc2)cc1`
Response given: -0.0102

* * *

- EXPERIMENT NOTES: COS7 lysate on small-molecule microarray, probe aHis, 635 nm (AID 1123);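 further: z-score combines 667nm fluorescence intensity with signal-to-noise per printed compound spot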
- PARTICULARS: COS7 cell lysate, fluorescence, higher = more signal
Listing of recorded composite z-score by entry.
Please give only the number in your answer, with no unit.

Worked cases, composite z-score given:
{"columns": ["MOLECULE", "MEASUREMENT"],
 "data": [
  ["Oc1ccc2cc[n+](Cc3cccc(OC(F)(F)F)c3)cc2c1", 1.58],
  ["CCCNC(=O)[C@@]1(C)c2ccccc2C(=O)N(Cc2ccc(OC(F)(F)F)cc2)[C@H]1c1ccc(CO)cc1", -0.517],
  ["Cn1c2c(c3ccccc31)C(=O)C1NC2C=CC1(C)C(=O)OCc1ccccc1 (stereo not drawn)", 1.77],
  ["CC1CC/C=C\\[C@H]2OC34C=CCN(c5ccc6ccccc6c5)C(=O)[C@H]3N(CCCCCO)C(=O)[C@@H]4C2C(=O)O1 (stereo partly drawn)", -0.357]
]}

Challenge: Requested field: composite z-score. Item: `CN(C)CCCC[C@@H]1NC(=O)[C@@H]2C[C@H](C(=O)NCCCCCCN)[C@H](c3ccc(O)cc3)N2C1=O`
Response given: 1.81

Challenge: Requested field: composite z-score. Item: CCN(CC)c1ccc(N2CC=CC34O[C@@H]5/C=C\CCCOC(=O)C5[C@H]3C(=O)N(CCCO)[C@@H]4C2=O)cc1 (stereo partly drawn)
Response given: 3.01

Challenge: Requested field: composite z-score. Item: C=CCC(OC(C)=O)[C@@H]1[C@@H](N(Cc2ccc(-c3cccc(C(F)(F)F)c3)o2)C(=O)c2ccc(C)cc2)c2cc(OCCCO)ccc2N1C(=O)c1ccc2ccccc2n1 (stereo partly drawn)
Response given: 0.163

Challenge: Requested field: composite z-score. Item: `C=C(CCCC)C(=O)CC[C@@H](OC(=O)c1ccccc1-c1ccccc1C(=O)O)c1ccc(CO)o1`
Response given: 0.413

The measured values listed here are drawn from PubChem BioAssay.
